Collected maximum emission wavelength in the presence of Aβ aggregates values appear next to each entry.
# assayed_system: Aβ42 oligomers and fibrils (Homo sapiens)
# assay_name: Fluorescence turn-on with Aβ42 fibrils and oligomers
# Format: binding
# study_conditions: 5 μM compound, 25 μM Aβ42 species, PBS; for DCM-OH-2-MT the LE peak
Expressed in nm, but write only the number.

INSERT INTO measurements (compound, assayed_system, result_value) VALUES
  ('N#CC(C#N)=C1C=C(/C=C/C=C/c2ccc(O)cc2)Oc2ccccc21 [DCM-OH-2]', 'Aβ42 oligomers and fibrils (Homo sapiens)', 620);

Now look at this entry.
Form field: reported maximum emission wavelength in the presence of Aβ aggregates of CN1CCN(C)CCN(Cc2cc(/C=C/C=C/C3=CC(=C(C#N)C#N)c4ccccc4O3)ccc2O)CC1 [DCM-OH-2-MT]
620

----------
# assayed_system: Aβ42 oligomers and fibrils (Homo sapiens, UniProt P05067)
# Sequence (P05067 672-713 limits assumed): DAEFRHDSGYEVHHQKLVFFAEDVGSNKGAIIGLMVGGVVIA
# assay_name: Fluorescence turn-on with Aβ42 fibrils and oligomers
# Assay type: binding
# study_conditions: 5 μM compound, 25 μM Aβ42 species, PBS; for DCM-OH-2-MT the LE peak
Collected maximum emission wavelength in the presence of Aβ aggregates values appear next to each entry.

INSERT INTO measurements (structure_notation, result_value) VALUES
  ('CN1CCN(C)CCN(Cc2cc(/C=C/C3=CC(=C(C#N)C#N)c4ccccc4O3)cc(CN3CCN(C)CCN(C)CC3)c2O)CC1', '~ 650 nm');

Now look at this entry.
Form field: reported maximum emission wavelength in the presence of Aβ aggregates of CN1CCN(C)CCN(Cc2cc(/C=C/C3=CC(=C(C#N)C#N)c4ccccc4O3)ccc2O)CC1
~ 650 nm
